Source listed as the supplement of paper PMC8960247.

System: 621-102 (TSC2-deficient)
assay_overview: relative viability vs DMSO; higher = less cytotoxic;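 further: immortalized renal angiomyolipoma cells stably carrying empty vector or TSC2, dosed in 384-well plates in DMEM, viability normalized to vehicle-treated wells within each plate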
test_settings: 10 µM; serum: 10% FBS; 72 h
Structures can show the parent of a compound that is named as a salt.
The threshold is 30%. Values of relative viability beneath it are tagged Met; values meeting or exceeding it are tagged Not met.

Say whether its relative viability is strictly beneath 30%. Entry: NCCc1ccc(O)c(O)c1 [Dopamine HCl]
Not met

Say whether its relative viability is strictly beneath 30%. Entry: C=CCNC1=C2C[C@@H](C)C[C@H](OC)[C@H](O)[C@@H](C)/C=C(\C)[C@H](OC(N)=O)[C@@H](OC)/C=C\C=C(/C)C(=O)NC(=CC1=O)C2=O [17-AAG (Geldanamycin)]
Met

Say whether its relative viability is strictly beneath 30%. Entry: COC1=CC(c2cc3ccccc3[nH]2)=N/C1=C\c1[nH]c(C)cc1C [Obatoclax Mesylate]
Met

Say whether its relative viability is strictly beneath 30%. Entry: O=C(c1cc(Cc2n[nH]c(=O)c3ccccc23)ccc1F)N1CCN(C(=O)C2CC2)CC1 [AZD2281 (Olaparib)]
Not met

----------
Listing of recorded relative viability by entry.
System: 621-103 (TSC2-rescued)
assay_overview: relative viability vs DMSO; higher = less cytotoxic
test_settings: 10 µM; serum: 10% FBS; 72 h
Counter-ions that a name gives are not always drawn.
Numeric only. Scale: %

Below, each entry is followed by its recorded relative viability result.
COc1ccccc1N1CCN(CC(O)COc2cccc3ccccc23)CC1 (stereo not drawn) [Naftopidil]	107
Cc1ccc(C(=O)N(CCCN)[C@@H](c2nc3cc(Cl)ccc3c(=O)n2Cc2ccccc2)C(C)C)cc1 [Ispinesibmesilate]	1.19
OC(CNCC(O)C1CCc2cc(F)ccc2O1)C1CCc2cc(F)ccc2O1 (stereo not drawn) [Nebivolol HCl]	36.4
COc1cc(OC)c(NC(=O)Nc2cc(C)on2)cc1Cl	111

Reported relative viability, molecule Cc1cc(C(=O)NOCCO)c(Nc2ccc(I)cc2F)n(C)c1=O : ____
68.4

Reported relative viability, molecule CC(C)NCC(O)c1ccc(O)c(O)c1 (stereo not drawn) [Isoprenaline HCl] : ____
83.3

Reported relative viability, molecule C=CC(=O)N1CCC[C@@H](n2nc(-c3ccc(Oc4ccccc4)cc3)c3c(N)ncnc32)C1 : ____
105

Reported relative viability, molecule N#Cc1c(O)c2c(-c3ccc(-c4ccccc4O)cc3)csc2[nH]c1=O : ____
105

Reported relative viability, molecule CN(c1ncccc1CNc1nc(Nc2ccc3c(c2)CC(=O)N3)ncc1C(F)(F)F)S(C)(=O)=O : ____
38.2

Reported relative viability, molecule CC(=O)NC[C@H]1CN(c2ccc(N3CCOCC3)c(F)c2)C(=O)O1 : ____
104

----------
Tested on: 621-103 (TSC2-rescued)
assay_overview: relative viability vs DMSO; higher = less cytotoxic
test_settings: 0.0001 µM; serum: 10% FBS; 72 h
experimental_endpoint: relative viability (%)
Numeric only. Scale: %

CC[N+](CC)(CC)CCOc1cccc(OCC[N+](CC)(CC)CC)c1OCC[N+](CC)(CC)CC [Gallamine triethiodide (Flaxedil)]	99.9
CCOC(=O)C1=C(C)NC(C)=C(C(=O)OC)C1c1cccc(Cl)c1Cl (stereo unspecified)	104
C[C@H](N[C@@H](CCc1ccccc1)C(=O)O)C(=O)N1CCC[C@H]1C(=O)O	101
COc1cc2ncnc(Nc3cccc(Br)c3)c2cc1OC	102
CC(=O)Nc1nc(C)c(-c2ccc(Cl)c(S(=O)(=O)NCCO)c2)s1	103

Reported relative viability, compound Cc1cc2c(s1)Nc1ccccc1N=C2N1CCN(C)CC1 [Olanzapine (Zyprexa)] : ____
103

Reported relative viability, compound CN1CCN(c2ccc([N+](=O)[O-])c3no[n+]([O-])c23)CC1 : ____
75

Reported relative viability, compound Oc1ccc([C@@H]2Oc3ccc(O)cc3[C@@H]3CCC[C@@H]32)cc1 : ____
106

----------
Test system: 621-103 (TSC2-rescued)
assay_overview: relative viability vs DMSO; higher = less cytotoxic
test_settings: 0.01 µM; serum: 10% FBS; 72 h
Structures can show the parent of a compound that is named as a salt.
Listing of recorded relative viability by entry.
Numeric only. Scale: %

Below, each entry is followed by its recorded relative viability result.
O=C(CN1C(=O)C2(CCCC2)NC[C@H]1c1cc(F)cc(F)c1)Nc1ccc2c(c1)C[C@@]1(C2)C(=O)Nc2ncccc21 [MK 3207 hydrochloride]	101
CC1=C2C[C@H]3[C@@H](CC=C4C[C@@H](O)CC[C@@]43C)[C@@H]2CC[C@]12O[C@@H]1C[C@H](C)CN[C@H]1[C@H]2C [Cyclopamine]	98.2
CN(CCOc1ccc(CC2SC(=O)NC2=O)cc1)c1ccccn1 (stereo unspecified) [Rosiglitazone (Avandia)]	102
Nc1nc2[nH]cc(CCc3ccc(C(=O)N[C@@H](CCC(=O)O)C(=O)O)cc3)c2c(=O)[nH]1 [Pemetrexed disodium]	102
Cc1[nH]c(/C=C2\C(=O)Nc3ccc(S(=O)(=O)N(C)c4cccc(Cl)c4)cc32)c(C)c1C(=O)N1CCN(C)CC1	98.4

Okay, now this molecule:
Reported relative viability, molecule CC(=O)O[C@@]12CO[C@@H]1C[C@H](O)[C@@]1(C)C(=O)[C@H](O)C3=C(C)[C@@H](OC(=O)[C@H](O)[C@@H](NC(=O)OC(C)(C)C)c4ccccc4)C[C@@](O)([C@@H](OC(=O)c4ccccc4)[C@H]21)C3(C)C [Docetaxel] : ____
42.9

----------
Listing of recorded relative viability by entry.
System: 621-102 (TSC2-deficient)
assay_overview: relative viability vs DMSO; higher = less cytotoxic
test_settings: 0.1 µM; serum: 10% FBS; 72 h
Counter-ions that a name gives are not always drawn.
Numeric only. Scale: %

c1ccc2c(CC3=NCCN3)cccc2c1 [Naphazoline HCl]	111

Reported relative viability, compound O=c1[nH]c2ccccc2n1CCCN1CCC(n2c(=O)[nH]c3cc(Cl)ccc32)CC1 : ____
106

Reported relative viability, compound CO[C@@H](C(=O)N1Cc2[nH]nc(NC(=O)c3ccc(N4CCN(C)CC4)cc3)c2C1)c1ccccc1 : ____
91.8

Reported relative viability, compound Cc1cccc(-c2[nH]c(C(C)(C)C)nc2-c2ccc3nccnc3c2)n1 : ____
109

----------
System: 621-102 (TSC2-deficient)
assay_overview: relative viability vs DMSO; higher = less cytotoxic
test_settings: 1 µM; serum: 10% FBS; 72 h
Where a name gives a salt, the structure may show the parent alone.
Listing of recorded relative viability by entry.
Numeric only. Scale: %

C=CC(=O)Nc1cccc(Sc2nc(Nc3ccc(N4CCN(C)CC4)cc3)ncc2Cl)c1	98

Write down the reported relative viability of CCO[C@@H]1OC(=O)C[C@@H]1NC(=O)[C@@H]1CCCN1C(=O)[C@@H](NC(=O)c1ccc(N)c(Cl)c1)C(C)(C)C , test system: 621-102 (TSC2-deficient).
101

Write down the reported relative viability of O=C(NC[C@H](O)CO)c1ccncc1Nc1ccc(I)cc1F , test system: 621-102 (TSC2-deficient).
90.5

Write down the reported relative viability of COc1cc2nccc(Oc3ccc(NC(=O)Nc4cc(C)on4)c(Cl)c3)c2cc1OC , test system: 621-102 (TSC2-deficient).
107

Write down the reported relative viability of CCS(=O)(=O)Nc1ccc2c(c1)/C(=C(/Nc1ccc(CN3CCCCC3)cc1)c1ccccc1)C(=O)N2 , test system: 621-102 (TSC2-deficient).
59.2

Write down the reported relative viability of S=C(NCc1ccc2c(c1)OCO2)N1CCN(c2ncnc3c2oc2ccccc23)CC1 , test system: 621-102 (TSC2-deficient).
118

Write down the reported relative viability of CO/N=C(\C(=O)N[C@@H]1C(=O)N2C(C(=O)O)=C(CSC(=O)c3ccco3)CS[C@H]12)c1csc(N)n1 [Ceftiofur HCl] , test system: 621-102 (TSC2-deficient).
116

Write down the reported relative viability of Nc1[nH]cnc2ncnc1-2 [Adenine] , test system: 621-102 (TSC2-deficient).
101

----------
Test system: 621-103 (TSC2-rescued)
assay_overview: relative viability vs DMSO; higher = less cytotoxic
test_settings: 0.01 µM; serum: 10% FBS; 72 h
Structures can show the parent of a compound that is named as a salt.
Listing of recorded relative viability by entry.
Numeric only. Scale: %

Below, each entry is followed by its recorded relative viability result.
Cc1ccc(NC(=O)c2ccc(CN3CCN(C)CC3)cc2)cc1Nc1nccc(-c2cccnc2)n1 [Imatinib Mesylate]	102
CCN(CCO)CCCOc1ccc2c(Nc3cc(CC(=O)Nc4cccc(F)c4)[nH]n3)ncnc2c1	96.9
Cc1ccc(NC(=O)c2cccc(N(C)C)c2)cc1NC(=O)c1ccc(O)cc1	101

Write down the reported relative viability of CC(=O)NC[C@H]1CN(c2ccc(N3CCOCC3)c(F)c2)C(=O)O1 , test system: 621-103 (TSC2-rescued).
98.2

Write down the reported relative viability of Nc1ccccc1NC(=O)c1ccc(CNc2nccc(-c3cccnc3)n2)cc1 , test system: 621-103 (TSC2-rescued).
106

Write down the reported relative viability of O=C(/C=C/c1cccc(S(=O)(=O)Nc2ccccc2)c1)NO , test system: 621-103 (TSC2-rescued).
97.5

Write down the reported relative viability of c1ccc2c(CCNc3ccc(Nc4ccncc4)cc3)c[nH]c2c1 , test system: 621-103 (TSC2-rescued).
103

Write down the reported relative viability of c1cncc(CN2CCC(n3ncc4c(N5CCOCC5)nc(-c5ccc6[nH]ccc6c5)nc43)CC2)c1 , test system: 621-103 (TSC2-rescued).
103

Write down the reported relative viability of C[C@]1(c2nc3c(C(N)=O)cccc3[nH]2)CCCN1 , test system: 621-103 (TSC2-rescued).
104
